- protocol.notes: chemical genetic growth profiling, strain panel (AID 1159580);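 also: tested at 20 µM; growth read once vehicle control cultures reached saturation at 30 °C; 1 = growth at the plate median or of vehicle wells; lower values mean less growth of the strain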
- details: S. cerevisiae deletion strains, growth OD, locus YBR009C, strain hhf1, hits give low values
The campaign covered roughly 5,500 compounds. About 2,000 (36%) were called active. Inconclusive results (about 18%) are left out. Some of the results follow.
Hi there, I'd appreciate the recorded normalized growth for every entry that follows.
Answers are plain numbers.

Known results for compounds:
**Q:** Any idea what its normalized growth is? The compound is O=c1cccc2n1CC1CC2CN2CCCC[C@@H]12 (stereo partly drawn)
**A:** 0.947

**Q:** Quick one: CCCCCCCCCCCCCC(=O)OC1C(C)C2(O)C(C=C(CO)CC3(O)C(=O)C(C)=CC32)C2C(C)(C)C12OC(C)=O (stereo not drawn)
**A:** 0.965

Continuing:
**Q:** # query: normalized growth of entry CC(=O)C1CCC2C3CCC4C[C@H](O)CCC4(C)C3C[C@H](O)C12C (stereo partly drawn)
**A:** 0.963

* * *

- protocol.notes: chemical genetic growth profiling, strain panel (AID 1159580);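 also: tested at 20 µM; growth read once vehicle control cultures reached saturation at 30 °C; 1 = growth at the plate median or of vehicle wells; lower values mean less growth of the strain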
- details: S. cerevisiae deletion strains, growth OD, locus YAL026C, strain drs2
About 2,000 (36%) of roughly 5,500 compounds were called active. Inconclusive results (about 18%) are left out. Rule as the data show it: active = normalized growth mostly below about 0.91 (no sharp cut-off); inconclusive = no clear call, values can overlap the other calls; inactive = mostly above about 0.92. The list shows a part of the results.
Please answer using one outcome listed in true = active, false = inactive

Below, 5 compounds whose answers are already recorded.
**Q:** Dear all, I need the recorded test outcome for CC(=O)O[C@H]1C[C@@]2(C)[C@@H](C[C@@H](O)C3[C@]2(C)CC[C@H]2[C@H](C)[C@H](O)CC[C@]32C)/C1=C(/CCC=C(C)C)C(=O)O (stereo partly specified) , thank you.
**A:** false

**Q:** Another: `COc1ccc2oc3ccccc3c(=O)c2c1`
**A:** true

**Q:** O=C(O)CCC1NCC2CC1CN1CCCCC21 (stereo unspecified) ?
**A:** false

**Q:** Then this compound: `NC1(C(=O)O)CC1`
**A:** false

**Q:** What would you report for `COc1ccc(-c2oc3cc(OC)c(OC)c(OC)c3c(=O)c2OC)cc1OC` ?
**A:** false

Now consider a different compound.
**Q:** For O=c1[nH]c(=O)n(C2C[C@H](O)[C@@H](CO)O2)cc1C(F)(F)F (stereo partly specified) , which call appears in the assay record?
**A:** false

* * *

Provide the reported normalized growth of each item.
- protocol.notes: chemical genetic growth profiling, strain panel (AID 1159580);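 also: tested at 20 µM; growth read once vehicle control cultures reached saturation at 30 °C; 1 = growth at the plate median or of vehicle wells; lower values mean less growth of the strain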
- details: S. cerevisiae deletion strains, growth OD, locus YNR052C, strain pop2, hits give low values
The whole screen tested about 5,500 compounds, of which about 2,000 (36%) were called active. Another 18% or so got no clear call; they are omitted. The list shows a part of the results. Where a SMILES comes first, the peptide text is derived from it.
Numbers only.

**Q:** May I ask what normalized growth has been recorded for CC(=O)O[C@H]1C[C@@H](OC(C)=O)C(C)(C)C2C[C@@H](O)[C@]3(C)C(CC[C@@]4(C)[C@H](c5ccoc5)OC(=O)[C@H]5O[C@]543)[C@]21C (some centres undefined) ?
**A:** 0.999

**Q:** What do you get for COC1C=CC23c4cc5c(cc4CN(CC2O)[C@@H]3C1)OCO5 (some centres undefined) ?
**A:** 0.997

**Q:** Entry to check: C=C[C@@]1(C)CC(=O)[C@@]2(O)[C@](C)(O1)[C@@H](OC(C)=O)[C@@H](O)C1C(C)(C)CC[C@H](O)[C@@]12C (some centres undefined)
**A:** 0.984

**Q:** Field entry: `CN1CCC[C@@H]1CCO[C@](C)(c1ccccc1)c1ccc(Cl)cc1`
**A:** 0.971

**Q:** Cool, now `Cc1onc(-c2ccccc2)c1-c1ccc(S(N)(=O)=O)cc1`
**A:** 1

**Q:** And what about the compound `CC(=O)NCCc1c[nH]c2ccc(O)cc12` ?
**A:** 0.996

Would you mind listing normalized growth for each of the following compounds?
1. C[C@]12CCC3C(CC[C@H]4C[C@H](O)CC[C@]34C)C1CC[C@@H]2O (some centres undefined)
2. CC(=O)O[C@@H]1CC2C(C)(C)[C@H](O)CC[C@]2(C)C2CC[C@@]3(C)[C@H](c4ccoc4)OC(=O)C4OC43[C@@]21C (some centres undefined)
3. CCN1C[C@@]2(COC)C3[C@@H](OC)[C@H]4[C@@H]1[C@]3(C(OC)C[C@H]2O)C1C[C@@]2(O)[C@H](OC(=O)c3ccccc3)C1[C@]4(OC(C)=O)[C@@H](O)[C@@H]2OC (some centres undefined)
4. Clc1ccc(CSC(Cn2ccnc2)c2ccc(Cl)cc2Cl)cc1 (centres undefined)
5. CC(=O)O[C@H]1CC[C@@]2(C)C(C[C@@H](OC(C)=O)[C@]3(C)C2CC[C@@]2(C)[C@H](c4ccoc4)OC(=O)[C@H]4O[C@]423)C1(C)C (some centres undefined)
6. CC12CCC3C(=CCc4cc(O)ccc43)C1CCC2=O (centres undefined)

**A:**
1: 0.884; 2: 0.997; 3: 1.02; 4: 0.0598; 5: 1.03; 6: 0.901

Go through the items and report each one's normalized growth.
1. COc1cc(C)c2c(=O)cc(-c3ccccc3)oc2c1
2. CC(=O)N[C@@H](CC(=O)O)C(=O)N[C@@H](CCC(=O)O)C(=O)O (Ac-Asp-Glu-OH)
3. CCCCCCCCCCCCCC(=O)OC1C(C)C2(O)C(C=C(CO)CC3(O)C(=O)C(C)=CC32)C2C(C)(C)C12OC(C)=O (centres undefined)
4. C[C@]12C=CC(=O)C=C1CCC1C2[C@@H](O)C[C@@]2(C)C1CC[C@]2(O)C(=O)CO (some centres undefined)

**A:**
1. 0.958
2. 0.991
3. 0.995
4. 0.988

Please go through the list and note normalized growth for each compound.
1. Clc1ccc(COC(Cn2ccnc2)c2ccc(Cl)cc2Cl)c(Cl)c1 (centres undefined)
2. O=C1CCCCC/C=C/CCCCCCCCO1

**A:**
0.0593
1.01

I need normalized growth for every entry listed below, if you could help.
1. Clc1ccc(COC(Cn2ccnc2)c2ccc(Cl)cc2Cl)cc1 (centres undefined)
2. CC(=O)O[C@@H]1CC2C(C)(C)[C@@H](O)CC[C@]2(C)C2CC[C@@]3(C)[C@H](c4ccoc4)OC(=O)[C@H]4O[C@]43[C@@]21C (some centres undefined)

**A:**
1: 0.0609; 2: 1.02
